# target or system: T1, TNFR1 (Homo sapiens, UniProt P19438)
# T1 chain: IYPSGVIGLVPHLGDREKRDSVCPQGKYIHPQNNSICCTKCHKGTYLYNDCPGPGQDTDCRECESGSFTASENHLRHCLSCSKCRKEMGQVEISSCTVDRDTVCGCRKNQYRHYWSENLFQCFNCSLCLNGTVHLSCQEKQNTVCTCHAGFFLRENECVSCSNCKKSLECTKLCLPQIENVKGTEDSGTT
# assay info: yeast display SC50
measurement label: apparent Kd (screen) (nM)

# annotated cases, reported apparent Kd (screen) shown
A36K (designed binder) SMEEEVEKAAKEYEKKKKEAIEKHLEKLKAKDKEAKERFLKELEEAAKEYAKDEAKTMSEEEAKRRAKKYKEKVLLSELSEEEQKEIKEAEEKLVRTILKYVEEAAK :: 0.49
E22G (designed binder) SMEEEVEKAAKEYEKKKKEAIGKHLEKLKAKDKEAAERFLKELEEAAKEYAKDEAKTMSEEEAKRRAKKYKEKVLLSELSEEEQKEIKEAEEKLVRTILKYVEEAAK :: 1.05
L79M (designed binder) SMEEEVEKAAKEYEKKKKEAIEKHLEKLKAKDKEAAERFLKELEEAAKEYAKDEAKTMSEEEAKRRAKKYKEKVLLSEMSEEEQKEIKEAEEKLVRTILKYVEEAAK :: 0.79

[P] I98M (designed binder) SMEEEVEKAAKEYEKKKKEAIEKHLEKLKAKDKEAAERFLKELEEAAKEYAKDEAKTMSEEEAKRRAKKYKEKVLLSELSEEEQKEIKEAEEKLVRTMLKYVEEAAK
[Q] A9C (designed binder) SMEEEVEKCAKEYEKKKKEAIEKHLEKLKAKDKEAAERFLKELEEAAKEYAKDEAKTMSEEEAKRRAKKYKEKVLLSELSEEEQKEIKEAEEKLVRTILKYVEEAAK
[R] R65Q (designed binder) SMEEEVEKAAKEYEKKKKEAIEKHLEKLKAKDKEAAERFLKELEEAAKEYAKDEAKTMSEEEAKQRAKKYKEKVLLSELSEEEQKEIKEAEEKLVRTILKYVEEAAK
[S] H24Q (designed binder) SMEEEVEKAAKEYEKKKKEAIEKQLEKLKAKDKEAAERFLKELEEAAKEYAKDEAKTMSEEEAKRRAKKYKEKVLLSELSEEEQKEIKEAEEKLVRTILKYVEEAAK
[T] V74S (designed binder) SMEEEVEKAAKEYEKKKKEAIEKHLEKLKAKDKEAAERFLKELEEAAKEYAKDEAKTMSEEEAKRRAKKYKEKSLLSELSEEEQKEIKEAEEKLVRTILKYVEEAAK
[ask] Rank items: key apparent Kd (screen), increasing. # list labels per requested ordering
[reply] R, Q, S, P, T
